B1: FAM189A2 (parent)
chain: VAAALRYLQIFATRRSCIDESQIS

Variants of: B1
Test: protein stability index of a GFP-peptide fusion (GPS, HEK-293T) (PSI 1-6); higher = more stable;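 also: lentivirally expressed fusions sorted by FACS into six bins by GFP to DsRed ratio, PSI derived from sequencing read proportions per bin multiplied by bin number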
Conditions: c terminus: a fixed tail appended
Reported protein stability index values are given for each entry in this list.

SEQUENCE_CHANGE | protein stability index
R14F | 2.54
Q22P | 2.26
A12P | 3.67
Q22E | 2.15
I18C | 2.3
I10G | 1.87
C17D | 1.9
I18F | 4.04
Q22F | 2.04
C17M | 2.58
Y7S | 2.92
F11Y | 2.36
A2N | 1.27
V1T | 3.71
Y7V | 2.4
V1H | 2.36
S16A | 3.14
A4I | 2.64
S24A | 2.76
R14E | 1.12
L8H | 2.08
L5K | 1.48
R6C | 3.52
Y7I | 1.99
A2D | 2.63
R14K | 1.79
L5Y | 3.26
A12I | 3.18
A2E | 1.89
R15L | 1.35
A12L | 2.85
R14S | 2.38
S24C | 3.79
